Data origin, for the record: paper PMC10726135

For each of the sequences below, state its binding signal.
system.name: HNF4alpha8 (COS-7 nuclear extract) (Homo sapiens, UniProt P41235-5 1-452)
Sequence: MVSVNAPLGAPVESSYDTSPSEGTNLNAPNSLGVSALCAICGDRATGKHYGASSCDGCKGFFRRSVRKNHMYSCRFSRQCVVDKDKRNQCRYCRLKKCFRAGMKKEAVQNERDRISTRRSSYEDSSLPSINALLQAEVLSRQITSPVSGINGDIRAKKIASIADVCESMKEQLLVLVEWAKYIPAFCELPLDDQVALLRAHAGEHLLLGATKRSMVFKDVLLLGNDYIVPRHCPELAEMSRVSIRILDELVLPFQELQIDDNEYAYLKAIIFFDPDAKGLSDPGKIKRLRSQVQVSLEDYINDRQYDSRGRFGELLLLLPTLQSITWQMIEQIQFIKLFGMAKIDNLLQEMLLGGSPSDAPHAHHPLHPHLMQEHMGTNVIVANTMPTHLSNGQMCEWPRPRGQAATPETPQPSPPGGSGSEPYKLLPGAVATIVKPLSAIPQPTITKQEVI
test.name: protein-binding microarray; COS-7 nuclear extract on double-stranded Agilent 4x180k PBM; binding buffer, salt, pH and temperature not given in the material; high values mean tight binding
measurement.context: chain copies: 2; label: 3' end of strand 1 on the slide; dsDNA, one strand shown
Whole data set: some 18,000 sequences, median “log2 normalized intensity” near 0.36, cut for the highest 2% near 7.3. Many of the other results were omitted from the sample, so the highest values are more common in it than they were.
One number for each entry, in log2 normalized intensity.

| sequence.code | scale.unit | binding signal |
| --- | --- | --- |
| GGCAGTCGTGATAGTGACCACCTGGTGGACGCCTAGGGAGATTAGAGTATCGGTCGA | log2 normalized intensity | 1.42 |
| AAGATAATGGGTCCGAAGGTCAGCTGACCAGCCTAGGGAGATTAGAGTATCGGTCGA | log2 normalized intensity | 5.57 |
| CCCTGGTCTCTCTTACCCAACCAAAAACAAGCCTAGGGAGATTAGAGTATCGGTCGA | log2 normalized intensity | 3.38 |
| ATCTAGGTGAGGGATGAGGACTTTGATCAGGCCTAGGGAGATTAGAGTATCGGTCGA | log2 normalized intensity | 6.79 |
| ACCGTAAATGCATTATTGCACTGTGCTTTGGCCTAGGGAGATTAGAGTATCGGTCGA | log2 normalized intensity | 1.3 |
| CTTAGCAGTGGGAGACAGGCATTAACCCTTGCCTAGGGAGATTAGAGTATCGGTCGA | log2 normalized intensity | 1.74 |
| TTATCTCAGATGAGACTTTGGACTTTTGAAGCCTAGGGAGATTAGAGTATCGGTCGA | log2 normalized intensity | 8.04 |
| AAATCATGGATCTGTGCTCAGATCCTGCTCGCCTAGGGAGATTAGAGTATCGGTCGA | log2 normalized intensity | -0.984 |

Now for the sequence whose binding signal we want.
# get_value(readout='binding signal', item= CTGAGAAGATGAAAGACGAAAGGGACTTTGGCCTAGGGAGATTAGAGTATCGGTCGA )
2.82
